Data provenance: patent EP4620959A1

Molecular target: KDR (Homo sapiens)

SMILES RECORD: Cc1nn2cc1Nc1ncc(C(F)(F)F)c(n1)NCCCNC(=O)C2(C)C
UNIT SYMBOL: nM
IC50: 18.9

====

Assay: Oral pharmacokinetic study in rats
Details: rat, in vivo, 3 mg/kg; male SD rats, oral gavage, dose 3mpk, 1% MC

SMILES RECORD: Cc1nn2cc1Nc1ncc(C(F)(F)F)c(n1)NCCCNC(=O)C2(C)C
UNIT SYMBOL: ng/mL
Cmax: 754

====

Molecular target: LRRK2 wt (Homo sapiens)
Experiment: Kinase activity inhibition assay (ADP-Glo), LRRK2 wt
Format: biochemical
Conditions: read-out: LRRK2 wt inhibition rate at 100 nM, ATP 20 µM, compound at 100 nM
Listed here: items and their measured inhibition at 0.1 µM.

MOLECULE: Cc1nn2cc1Nc1ncc3c(Cl)cn(c3n1)CCCCNC(=O)C2(C)C
inhibition at 0.1 µM [%]: 92.5
//
MOLECULE: Cc1nn2cc1Nc1ncc(C(F)(F)F)c(n1)NCCCNC(=O)C2
inhibition at 0.1 µM [%]: 87
//
MOLECULE: Cc1nn2cc1Nc1ncc3c(Cl)nn(c3n1)CCCNC(=O)C2(C)C
inhibition at 0.1 µM [%]: 64
//
MOLECULE: Cc1nn2cc1Nc1ncc3c(C(F)(F)F)cc(n3n1)CCCNC(=O)C2(C)C
inhibition at 0.1 µM [%]: 95.6
//
MOLECULE: Cc1nn2cc1Nc1ncc(C(F)(F)F)c(n1)NCCC(C)NC(=O)C2(C)C (stereo not drawn)
inhibition at 0.1 µM [%]: 37.7
//
MOLECULE: Cc1nn2cc1Nc1ncc(C(F)(F)F)c(n1)NCCCOCCNC(=O)C2(C)C
inhibition at 0.1 µM [%]: 55
//
MOLECULE: Cc1nn2cc1Nc1ncc3c(Cl)cc(n3n1)CCCCNC(=O)C2(C)C
inhibition at 0.1 µM [%]: 98.4
//
MOLECULE: Cc1nn2cc1Nc1ncc(C(F)(F)F)c(n1)NCCNC(=O)C2(C)C
inhibition at 0.1 µM [%]: 5.7
//
MOLECULE: Cc1nn2cc1Nc1ncc3c(n1)c(cn3C)CCCNC(=O)C2(C)C
inhibition at 0.1 µM [%]: 60.1
//
MOLECULE: Cc1nn2cc1Nc1ncc3c(n1)c(nn3C)CCCNC(=O)C2(C)C
inhibition at 0.1 µM [%]: 11.6
//
MOLECULE: CC1(C)C(=O)NCCCc2cc(Cl)c3cnc(nn23)Nc2cn1nc2Cl
inhibition at 0.1 µM [%]: 88
//
MOLECULE: Cc1nn2cc1Nc1ncc(C(F)(F)F)c(n1)N(C)CCCNC(=O)C2(C)C
inhibition at 0.1 µM [%]: 91.6
//
MOLECULE: Cc1nn2cc1Nc1ncc3ccc(n3n1)CCCNC(=O)C2(C)C
inhibition at 0.1 µM [%]: 57.3
//
MOLECULE: Cc1nn2cc1Nc1ncc(C(F)(F)F)c(n1)NCCCN(C)C(=O)C2(C)C
inhibition at 0.1 µM [%]: 2.45
//
MOLECULE: Cc1nn2cc1Nc1ncc3c(C#N)cc(n3n1)CCCNC(=O)C2(C)C
inhibition at 0.1 µM [%]: 61.3
//
MOLECULE: Cc1nn2cc1Nc1ncc(C(F)(F)F)c(n1)NC/C=C/CNC(=O)C2(C)C
inhibition at 0.1 µM [%]: 56.1
//
MOLECULE: Cc1nn2cc1Nc1ncc3c(Cl)cn(c3n1)CCCNC(=O)C2(C)C
inhibition at 0.1 µM [%]: 92
//
MOLECULE: Cc1nn2cc1Nc1ncc(C(F)(F)F)c(n1)N(C)CCCN(C)C(=O)C2(C)C
inhibition at 0.1 µM [%]: 8.85

====

TYRO3 (Homo sapiens, UniProt Q06418) data, read-out pIC50
Sequence (Q06418 41-890): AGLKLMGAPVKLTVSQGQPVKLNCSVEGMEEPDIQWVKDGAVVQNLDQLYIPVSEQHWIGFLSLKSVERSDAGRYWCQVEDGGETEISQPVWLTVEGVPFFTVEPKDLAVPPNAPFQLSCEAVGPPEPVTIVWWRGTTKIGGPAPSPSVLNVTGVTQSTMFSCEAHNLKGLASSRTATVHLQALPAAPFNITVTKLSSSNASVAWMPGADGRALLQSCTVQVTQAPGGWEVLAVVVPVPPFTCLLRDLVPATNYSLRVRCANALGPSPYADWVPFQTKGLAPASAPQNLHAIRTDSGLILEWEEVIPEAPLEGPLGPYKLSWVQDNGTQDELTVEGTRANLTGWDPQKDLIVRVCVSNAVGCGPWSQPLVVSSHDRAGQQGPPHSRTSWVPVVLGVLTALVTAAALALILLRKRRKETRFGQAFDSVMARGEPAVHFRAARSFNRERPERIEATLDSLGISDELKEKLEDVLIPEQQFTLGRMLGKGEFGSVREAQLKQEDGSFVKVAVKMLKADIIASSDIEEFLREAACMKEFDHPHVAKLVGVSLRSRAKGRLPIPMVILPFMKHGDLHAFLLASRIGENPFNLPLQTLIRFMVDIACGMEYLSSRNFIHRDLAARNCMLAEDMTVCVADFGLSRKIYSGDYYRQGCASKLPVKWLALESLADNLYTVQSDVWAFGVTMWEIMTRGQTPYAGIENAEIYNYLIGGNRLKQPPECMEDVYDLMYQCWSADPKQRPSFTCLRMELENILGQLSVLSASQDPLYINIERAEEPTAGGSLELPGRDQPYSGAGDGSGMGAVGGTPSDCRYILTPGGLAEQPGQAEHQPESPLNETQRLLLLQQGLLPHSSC
pIC50: −log10 of the molar value.

SMILES RECORD: Cc1nn2cc1Nc1ncc3c(Cl)cc(n3n1)CCCNC(=O)C2(C)C
pIC50: 7.25
--
SMILES RECORD: Cc1nn2cc1Nc1ncc(C(F)(F)F)c(n1)NCCCNC(=O)C2(C)C
pIC50: 6.56

====

Biological target: FGFR2 V564F (Homo sapiens, UniProt P21802, V564F)
Sequence (P21802 22-821 V564F): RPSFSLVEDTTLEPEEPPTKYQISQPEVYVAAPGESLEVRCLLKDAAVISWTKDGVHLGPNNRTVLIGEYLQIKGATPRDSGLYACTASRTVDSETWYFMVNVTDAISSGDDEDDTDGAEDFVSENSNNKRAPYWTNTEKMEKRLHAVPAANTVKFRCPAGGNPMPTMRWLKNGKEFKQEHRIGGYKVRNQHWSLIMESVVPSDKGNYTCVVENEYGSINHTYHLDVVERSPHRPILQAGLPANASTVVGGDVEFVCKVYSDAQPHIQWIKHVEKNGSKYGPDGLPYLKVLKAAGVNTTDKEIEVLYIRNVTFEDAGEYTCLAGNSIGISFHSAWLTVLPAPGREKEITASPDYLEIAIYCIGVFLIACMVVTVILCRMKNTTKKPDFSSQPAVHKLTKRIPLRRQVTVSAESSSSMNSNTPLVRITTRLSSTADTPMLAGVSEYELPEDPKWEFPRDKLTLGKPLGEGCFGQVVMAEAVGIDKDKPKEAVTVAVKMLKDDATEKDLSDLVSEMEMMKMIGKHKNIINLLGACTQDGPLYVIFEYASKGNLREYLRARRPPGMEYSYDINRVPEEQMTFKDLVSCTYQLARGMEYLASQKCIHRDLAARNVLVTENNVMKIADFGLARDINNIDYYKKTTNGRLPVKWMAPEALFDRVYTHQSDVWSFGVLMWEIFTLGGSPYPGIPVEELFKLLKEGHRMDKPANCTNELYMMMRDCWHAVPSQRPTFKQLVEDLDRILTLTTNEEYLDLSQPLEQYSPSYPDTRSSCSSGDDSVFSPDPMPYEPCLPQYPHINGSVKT
Assay: Kinase activity inhibition assay (HTRF), FGFR2 V564F
Type: biochemical
Conditions: ATP 15 µM
pIC50: −log10 of the molar value.

MOLECULE: Cc1nn2cc1Nc1ncc(C(F)(F)F)c(n1)NCCCNC(=O)C2(C)C [Example T-1]
pIC50: 8.08
//
MOLECULE: Cc1nn2cc1Nc1ncc3c(Cl)cc(n3n1)CCCNC(=O)C2(C)C [Example T-25]
pIC50: 8.76

====

Biological target: FGFR3 K650M (Homo sapiens, UniProt P22607, K650M)
Sequence (P22607 23-806 K650M): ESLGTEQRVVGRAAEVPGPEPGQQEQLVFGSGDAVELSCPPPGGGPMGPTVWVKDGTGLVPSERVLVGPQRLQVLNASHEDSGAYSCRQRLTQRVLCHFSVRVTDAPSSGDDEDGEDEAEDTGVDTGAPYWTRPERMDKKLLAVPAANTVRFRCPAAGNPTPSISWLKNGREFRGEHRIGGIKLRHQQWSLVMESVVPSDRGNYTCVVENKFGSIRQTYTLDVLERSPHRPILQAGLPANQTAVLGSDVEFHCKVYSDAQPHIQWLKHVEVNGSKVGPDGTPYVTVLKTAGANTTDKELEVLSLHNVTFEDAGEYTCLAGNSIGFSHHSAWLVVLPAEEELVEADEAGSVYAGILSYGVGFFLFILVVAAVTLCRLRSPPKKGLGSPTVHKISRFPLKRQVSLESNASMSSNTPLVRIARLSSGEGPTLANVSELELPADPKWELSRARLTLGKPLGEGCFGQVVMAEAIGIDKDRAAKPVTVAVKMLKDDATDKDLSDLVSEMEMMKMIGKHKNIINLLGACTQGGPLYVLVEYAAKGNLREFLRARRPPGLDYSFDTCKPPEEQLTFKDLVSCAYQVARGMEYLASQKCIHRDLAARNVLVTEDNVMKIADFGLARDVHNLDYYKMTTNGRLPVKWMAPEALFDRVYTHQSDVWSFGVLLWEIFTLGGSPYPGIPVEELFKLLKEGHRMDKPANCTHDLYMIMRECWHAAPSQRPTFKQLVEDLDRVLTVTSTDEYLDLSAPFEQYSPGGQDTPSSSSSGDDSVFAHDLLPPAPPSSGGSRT
Assay: Kinase activity inhibition assay (HTRF), FGFR3 K650M
Settings: ATP 12 µM

SMILES RECORD: Cc1nn2cc1Nc1ncc3c(Cl)cc(n3n1)CCCNC(=O)C2(C)C
IC50, nM: 14.1
--
SMILES RECORD: Cc1nn2cc1Nc1ncc(C(F)(F)F)c(n1)NCCCNC(=O)C2(C)C
IC50, nM: 9.1

====

Target: LRRK2 wt (Homo sapiens, UniProt Q5S007)
Sequence (Q5S007 whole entry): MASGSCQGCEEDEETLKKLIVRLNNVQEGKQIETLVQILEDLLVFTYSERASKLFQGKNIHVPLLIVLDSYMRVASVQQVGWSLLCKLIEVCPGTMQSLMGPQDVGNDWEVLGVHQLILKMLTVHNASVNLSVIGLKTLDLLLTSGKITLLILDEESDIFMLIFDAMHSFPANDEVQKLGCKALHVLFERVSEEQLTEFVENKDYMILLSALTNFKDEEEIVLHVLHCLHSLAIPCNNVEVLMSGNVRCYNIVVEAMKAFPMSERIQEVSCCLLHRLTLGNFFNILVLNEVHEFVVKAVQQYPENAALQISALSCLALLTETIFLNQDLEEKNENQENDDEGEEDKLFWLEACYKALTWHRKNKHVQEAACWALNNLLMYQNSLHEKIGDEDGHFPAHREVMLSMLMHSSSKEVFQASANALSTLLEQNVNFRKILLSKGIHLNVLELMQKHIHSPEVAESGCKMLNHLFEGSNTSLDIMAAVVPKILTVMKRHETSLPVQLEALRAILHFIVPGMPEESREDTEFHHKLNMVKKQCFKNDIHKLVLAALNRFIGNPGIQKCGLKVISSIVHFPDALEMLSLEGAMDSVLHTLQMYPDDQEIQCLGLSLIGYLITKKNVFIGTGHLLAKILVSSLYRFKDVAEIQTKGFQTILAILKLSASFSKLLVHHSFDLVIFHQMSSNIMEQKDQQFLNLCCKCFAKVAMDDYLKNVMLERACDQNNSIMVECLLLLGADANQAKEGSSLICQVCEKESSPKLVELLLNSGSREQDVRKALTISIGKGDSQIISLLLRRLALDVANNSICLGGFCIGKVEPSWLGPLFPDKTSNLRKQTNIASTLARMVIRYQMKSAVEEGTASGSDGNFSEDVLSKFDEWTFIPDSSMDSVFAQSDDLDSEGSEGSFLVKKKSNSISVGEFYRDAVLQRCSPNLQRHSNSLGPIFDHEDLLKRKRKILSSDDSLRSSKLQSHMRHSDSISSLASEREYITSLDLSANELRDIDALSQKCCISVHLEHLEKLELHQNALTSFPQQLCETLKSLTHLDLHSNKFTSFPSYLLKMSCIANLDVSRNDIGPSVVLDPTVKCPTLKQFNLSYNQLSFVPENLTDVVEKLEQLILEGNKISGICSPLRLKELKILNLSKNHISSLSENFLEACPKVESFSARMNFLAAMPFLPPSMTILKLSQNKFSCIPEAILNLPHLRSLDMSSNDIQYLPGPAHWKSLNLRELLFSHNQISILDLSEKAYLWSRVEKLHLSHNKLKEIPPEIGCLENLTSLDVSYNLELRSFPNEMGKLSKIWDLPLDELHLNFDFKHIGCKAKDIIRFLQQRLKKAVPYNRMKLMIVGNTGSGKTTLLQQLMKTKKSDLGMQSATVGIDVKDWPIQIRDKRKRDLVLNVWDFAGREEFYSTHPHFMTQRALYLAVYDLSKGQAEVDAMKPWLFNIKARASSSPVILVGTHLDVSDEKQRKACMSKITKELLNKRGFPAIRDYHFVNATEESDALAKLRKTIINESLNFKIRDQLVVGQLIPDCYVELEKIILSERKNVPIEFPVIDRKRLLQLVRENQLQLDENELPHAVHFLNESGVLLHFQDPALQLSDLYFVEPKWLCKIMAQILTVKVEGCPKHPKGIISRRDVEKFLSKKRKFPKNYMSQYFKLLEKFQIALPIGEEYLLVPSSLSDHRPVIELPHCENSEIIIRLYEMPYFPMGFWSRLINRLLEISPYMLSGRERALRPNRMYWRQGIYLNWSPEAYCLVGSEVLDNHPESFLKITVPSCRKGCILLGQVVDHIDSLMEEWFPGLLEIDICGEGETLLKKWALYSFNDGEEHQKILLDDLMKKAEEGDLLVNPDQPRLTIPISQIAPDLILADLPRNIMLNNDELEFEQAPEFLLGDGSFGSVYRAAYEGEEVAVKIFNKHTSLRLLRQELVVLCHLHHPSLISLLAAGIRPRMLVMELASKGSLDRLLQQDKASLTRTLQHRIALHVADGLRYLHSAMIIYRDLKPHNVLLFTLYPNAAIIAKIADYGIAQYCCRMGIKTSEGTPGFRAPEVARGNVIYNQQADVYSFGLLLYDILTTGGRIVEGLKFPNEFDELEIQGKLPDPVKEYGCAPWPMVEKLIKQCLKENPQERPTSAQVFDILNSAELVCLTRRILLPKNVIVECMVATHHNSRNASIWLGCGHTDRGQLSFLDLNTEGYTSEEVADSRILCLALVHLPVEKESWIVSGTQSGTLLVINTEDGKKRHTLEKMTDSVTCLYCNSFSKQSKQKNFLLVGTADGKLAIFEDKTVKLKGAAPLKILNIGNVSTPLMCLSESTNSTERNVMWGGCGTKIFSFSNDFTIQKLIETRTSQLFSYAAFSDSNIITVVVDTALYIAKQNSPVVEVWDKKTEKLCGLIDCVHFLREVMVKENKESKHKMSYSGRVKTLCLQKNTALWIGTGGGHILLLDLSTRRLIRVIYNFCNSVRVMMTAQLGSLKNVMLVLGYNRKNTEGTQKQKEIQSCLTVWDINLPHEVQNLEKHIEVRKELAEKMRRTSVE
Experiment: Kinase activity inhibition assay (ADP-Glo), LRRK2 wt
Assay type: biochemical
Settings: read-out: LRRK2 wt inhibition rate at 100 nM, ATP 20 µM, compound at 100 nM
Listed here: items and their measured inhibition at 0.1 µM.

COMPOUND: Cc1nn2cc1Nc1ncc3nn(C)c(c3n1)CCCNC(=O)C2(C)C
inhibition at 0.1 µM, %: 0.84
--
COMPOUND: Cc1nn2cc1Nc1ncc(C(F)(F)F)c(n1)NCCCn1cc(nn1)C2(C)C
inhibition at 0.1 µM, %: 86.1
--
COMPOUND: O=C1NCCCNc2nc(ncc2C(F)(F)F)Nc2cn(nc2C2CC2)C2CC12 (racemic)
inhibition at 0.1 µM, %: 89

====

Target: LRRK2 G2019S (Homo sapiens, UniProt Q5S007, G2019S)
Assay: Kinase activity inhibition assay (ADP-Glo), LRRK2 G2019S
Type: biochemical
Details: read-out: LRRK2 G2019S inhibition rate at 100 nM, ATP 100 µM, compound at 100 nM

COMPOUND: CN1CCCNc2nc(ncc2C(F)(F)F)Nc2cn(nc2C2CC2)C2CC2C1=O (racemic)
UNIT SYMBOL: %
inhibition at 0.1 µM: 92

COMPOUND: Cc1nn2cc1Nc1ncc3c(Cl)cn(c3n1)CCCNC(=O)C2(C)C
UNIT SYMBOL: %
inhibition at 0.1 µM: 88

COMPOUND: Cc1nn2cc1Nc1ncc(C(F)(F)F)c(n1)NCCCCNC(=O)C2(C)C
UNIT SYMBOL: %
inhibition at 0.1 µM: 92

COMPOUND: Cc1nn2cc1Nc1ncc3c(Cl)nn(c3n1)CCCNC(=O)C2(C)C
UNIT SYMBOL: %
inhibition at 0.1 µM: 52
